- ASSAY EXPLANATION: Pharmacokinetics of 3d in male SD rats, gavage
- Assay type: in vivo
- PROTOCOL CONDITIONS: male, rat, blood, po; SD rats, gavage, 30 mg/kg; read-out: MRT(0-∞) (converted)
MEASUREMENT NAME: MRT inf (h)
Write the value in h as a bare number.

Ask: Entry CNc1ccc(C(=O)/C=C/c2cc(C)c(OC(C)(C)C(=O)OC(C)(C)C)c(C)c2)cc1 [3d] needs its MRT inf filled in; supply it.
Result: 5.73

----------
- ASSAY EXPLANATION: Pharmacokinetics of 3d in male SD rats, tail vein injection
- Type: in vivo
- PROTOCOL CONDITIONS: male, rat, blood; SD rats, intravenous, 30 mg/kg
MEASUREMENT NAME: Cmax (ng/mL)
Write the value in ng/mL as a bare number.

Ask: Entry CNc1ccc(C(=O)/C=C/c2cc(C)c(OC(C)(C)C(=O)OC(C)(C)C)c(C)c2)cc1 [3d] needs its Cmax filled in; supply it.
Result: 1.09

----------
- ASSAY EXPLANATION: Pharmacokinetics of 3d in male SD rats, tail vein injection
- Assay type: in vivo
- PROTOCOL CONDITIONS: male, rat, blood; SD rats, intravenous, 30 mg/kg; read-out: MRT(0-∞) (converted)
MEASUREMENT NAME: MRT inf (h)
Write the value in h as a bare number.

Ask: Entry "CNc1ccc(C(=O)/C=C/c2cc(C)c(OC(C)(C)C(=O)OC(C)(C)C)c(C)c2)cc1" needs its MRT inf filled in; supply it.
Result: 3.62

----------
- ASSAY EXPLANATION: Pharmacokinetics of 3d in male SD rats, tail vein injection
- Assay type: in vivo
- PROTOCOL CONDITIONS: male, rat, blood; SD rats, intravenous, 30 mg/kg
MEASUREMENT NAME: Tmax (min)
Write the value in min as a bare number.

Ask: Entry "CNc1ccc(C(=O)/C=C/c2cc(C)c(OC(C)(C)C(=O)OC(C)(C)C)c(C)c2)cc1" needs its Tmax filled in; supply it.
Result: 5

----------
- ASSAY EXPLANATION: Pharmacokinetics of 3d in male SD rats, gavage
- Assay type: in vivo
- PROTOCOL CONDITIONS: male, SD, rat, blood, po, 30 mg/kg, SD rats, gavage, 30 mg/kg; read-out: Cmax
MEASUREMENT NAME: Cmax (ng/mL)
Write the value in ng/mL as a bare number.

Ask: Entry "CNc1ccc(C(=O)/C=C/c2cc(C)c(OC(C)(C)C(=O)OC(C)(C)C)c(C)c2)cc1" needs its Cmax filled in; supply it.
Result: 0.113

----------
- ASSAY EXPLANATION: Pharmacokinetics of 3d in male SD rats, gavage
- Type: in vivo
- PROTOCOL CONDITIONS: male, SD, rat, blood, po, 30 mg/kg; rats, administered orally; read-out: MRT(0-t) (converted)
MEASUREMENT NAME: MRT last (h)
Write the value in h as a bare number.

Ask: Entry CNc1ccc(C(=O)/C=C/c2cc(C)c(OC(C)(C)C(=O)OC(C)(C)C)c(C)c2)cc1 [3d] needs its MRT last filled in; supply it.
Result: 4

----------
- ASSAY EXPLANATION: Pharmacokinetics of 3d in male SD rats, gavage
- Assay type: in vivo
- PROTOCOL CONDITIONS: male, SD, rat, blood, po, 30 mg/kg, SD rats, gavage, 30 mg/kg; read-out: MRT(0-t) (converted)
MEASUREMENT NAME: MRT last (h)
Write the value in h as a bare number.

Ask: Entry CNc1ccc(C(=O)/C=C/c2cc(C)c(OC(C)(C)C(=O)OC(C)(C)C)c(C)c2)cc1 [3d] needs its MRT last filled in; supply it.
Result: 4.05
